Assay: Pharmacokinetic properties in mice
Format: in vivo, ICR mice
Details: male, ICR, mouse, plasma, po 10 mg/kg

{"COMPOUND": "O=c1ncn2nc(Oc3ccc(F)cc3F)ccc2c1-c1c(Cl)cccc1Cl", "RESULT_UNIT": "h", "MRT": 4.4}
{"COMPOUND": "O=c1ncn2nc(Oc3ccc(F)cc3)ccc2c1-c1c(Cl)cccc1Cl", "RESULT_UNIT": "h", "MRT": 5.55}
{"COMPOUND": "O=c1ncn2nc(Sc3ccc(F)cc3F)ccc2c1-c1c(Cl)cccc1Cl [VX-745, reference compound]", "RESULT_UNIT": "h", "MRT": 3.2}
{"COMPOUND": "O=c1ncn2nc(Oc3ccc(F)cc3F)ccc2c1-c1c(F)cccc1Cl", "RESULT_UNIT": "h", "MRT": 3.18}
{"COMPOUND": "O=c1ncn2nc(Oc3cc(F)c(F)cc3F)ccc2c1-c1c(Cl)cccc1Cl", "RESULT_UNIT": "h", "MRT": 4.34}
{"COMPOUND": "Cc1ccccc1-c1c(=O)ncn2nc(Oc3ccc(F)cc3F)ccc12", "RESULT_UNIT": "h", "MRT": 3.05}
{"COMPOUND": "O=c1ncn2nc(Oc3ccc(F)cc3F)ccc2c1-c1cc(Cl)ccc1Cl", "RESULT_UNIT": "h", "MRT": 4.86}

----------
Assay: Pharmacokinetic properties in mice
Type: in vivo, ICR mice
Conditions: iv 3 mg/kg

{"COMPOUND": "O=c1ncn2nc(Oc3ccc(F)cc3)ccc2c1-c1c(Cl)cccc1Cl", "Thalf (iv) / h": 3.73}
{"COMPOUND": "O=c1ncn2nc(Oc3ccc(F)cc3F)ccc2c1-c1cc(Cl)ccc1Cl", "Thalf (iv) / h": 3.96}
{"COMPOUND": "O=c1ncn2nc(Oc3ccc(F)cc3F)ccc2c1-c1c(Cl)cccc1Cl", "Thalf (iv) / h": 2.5}
{"COMPOUND": "O=c1ncn2nc(Oc3cc(F)c(F)cc3F)ccc2c1-c1c(Cl)cccc1Cl", "Thalf (iv) / h": 2.97}
{"COMPOUND": "O=c1ncn2nc(Oc3ccc(F)cc3F)ccc2c1-c1c(F)cccc1Cl", "Thalf (iv) / h": 3.32}
{"COMPOUND": "O=c1ncn2nc(Sc3ccc(F)cc3F)ccc2c1-c1c(Cl)cccc1Cl [VX-745, reference compound]", "Thalf (iv) / h": 3.9}
{"COMPOUND": "Cc1ccccc1-c1c(=O)ncn2nc(Oc3ccc(F)cc3F)ccc12", "Thalf (iv) / h": 1.93}

----------
Listed next: entries and their corresponding Tmax.
Assay: Pharmacokinetic properties in rats
Assay type: in vivo, SD rats
Conditions: male, SD, plasma; rat, po 6 mg/kg

{"COMPOUND": "O=c1ncn2nc(Oc3cc(F)c(F)cc3F)ccc2c1-c1c(Cl)cccc1Cl [Compound I-43]", "RESULT_UNIT": "h", "Tmax": 4}
{"COMPOUND": "O=c1ncn2nc(Oc3ccc(F)cc3)ccc2c1-c1c(Cl)cccc1Cl [Compound I-19]", "RESULT_UNIT": "h", "Tmax": 3}
{"COMPOUND": "O=c1ncn2nc(Oc3ccc(F)cc3F)ccc2c1-c1c(Cl)cccc1Cl [Compound I-4]", "RESULT_UNIT": "h", "Tmax": 4.5}
{"COMPOUND": "O=c1ncn2nc(Sc3ccc(F)cc3F)ccc2c1-c1c(Cl)cccc1Cl [VX-745, reference compound]", "RESULT_UNIT": "h", "Tmax": 0.8}
